# Test system: SNB-75
# procedure summary: NCI tumour cell line growth inhibition, 48 h
Active and inactive are the calls of the source. Cut-off read from the data, not from the text of the source: active = GI50 up to about 1.1 µM and inactive = higher.
Would you kindly list GI50 for each of these compounds?

Solved entries (count: 8):
| compound | recorded result |
| --- | --- |
| Cc1ccc(S(=O)(=O)N/C(=C\C=C\c2ccccc2)C(=O)C(C)(C)C)cc1 | 56.2 µM (inactive) |
| C=C1[C@@H]([C@@]2(C)C=CC(=O)C(C)(C)[C@@H]2CC(=O)OC)CC[C@@]2(C)[C@H](c3ccoc3)OC(=O)[C@H]3O[C@]132 | 46.2 µM (inactive) |
| CC1S(=O)(=O)OCCOS1(=O)=O | 67.9 µM (inactive) |
| COC(=O)c1c(C(=O)OC)c2ccccn2c1-c1cc(OC)c(Br)c(=O)o1 | 15.1 µM (inactive) |
| CC(=O)Nc1ccc(C(=O)NN2C(=O)C(Cl)C2c2cc(Br)ccc2O)cc1 (centres undefined) | 44.4 µM (inactive) |
| NNC(=O)CC(=O)Nc1ccc(S(=O)(=O)c2ccc(NC(=O)CC(=O)NN)cc2)cc1 | > 100 µM (inactive) |
| O=C(N/N=C\c1ccc2ccccc2c1)Nc1ccc([N+](=O)[O-])cc1 | 42.4 µM (inactive) |
| CSc1nc2c(c(=O)n1C)N=C(c1ccccc1)[C@H](C(CC(=O)c1ccccc1)c1ccccc1)C(c1ccccc1)N2 (some centres undefined) | 3.12 µM (inactive) |

Please supply GI50 for each of the following items, keeping them in order.
1. CC(CC(=O)O)(CC(=O)O)C(=O)O
2. NCC1OC(n2cnc3c(N)ncnc32)CC1O (centres undefined)

> 100 µM (inactive)
> 100 µM (inactive)

Please supply GI50 for each of the following items, keeping them in order.
1. CC(=O)OCC(=O)[C@@]1(O)CC[C@H]2[C@@H]3CCC4=CC(=O)[C@H](C)C[C@]4(C)[C@H]3[C@@H](O)C[C@@]21C
2. N#Cc1nn(C2OC(COC(=O)c3ccccc3)C(OC(=O)c3ccccc3)C2OC(=O)c2ccccc2)c2nc[nH]c(=O)c12 (centres undefined)
3. COC(=O)c1ccc(/C=C2\CCc3ccccc3C2=O)cc1
4. O=C1/C(=C/c2ccc(Br)s2)NC(=S)N1CN1CCCCC1
5. O=c1c2ccccc2nc(-c2ccccc2)n1NC(=S)Nc1cccc(Cl)c1

1. > 100 µM (inactive)
2. 76 µM (inactive)
3. > 100 µM (inactive)
4. 44.6 µM (inactive)
5. 28.4 µM (inactive)

Please supply GI50 for each of the following items, keeping them in order.
1. CC(C)(CNC(=O)/C(Cl)=C(/Cl)C(=O)O)CNC(=O)/C(Cl)=C(/Cl)C(=O)O
2. NCC(=O)N1CCN(c2nc(N3CCCC3)c3nc(Cl)c(NCc4ccccc4)nc3n2)CC1
3. Nc1ccc(Oc2ccc(C3(c4ccc(Oc5ccc(N)cc5)cc4)C4CC5CC(C4)CC3C5)cc2)cc1
4. CS/C(=C(\S)c1ccccc1)c1ccccc1

["> 100 µM (inactive)", "1.57 µM (inactive)", "54 µM (inactive)", "> 100 µM (inactive)"]

###

# Test system: KM12
# procedure summary: NCI tumour cell line growth inhibition, 48 h
The source made the active and inactive calls. No stated cut-off is given here; in the data, active = GI50 up to about 1.1 µM and inactive = higher.
Would you kindly list GI50 for each of these molecules?

Solved entries (count: 5):
| molecule | recorded result |
| --- | --- |
| CCOP(=O)(OCC)/C(C#N)=C/c1ccco1 | > 100 µM (inactive) |
| COC(=O)C1=C(OC(=O)/C(=C/c2ccccc2)c2ccc(Cl)cc2Cl)C(C(=O)OC)[C@@]2(O)[C@@H](C(=O)OC)[C@H](C)C[C@@H]1[C@@H]2C(=O)OC (some centres undefined) | > 100 µM (inactive) |
| CC1(C)C(=O)/C=C\C(=O)C(C)(C)C(=O)/C=C\C(=O)C(C)(C)C(=O)/C=C\C(=O)C(C)(C)C(=O)/C=C\C1=O | 40 µM (inactive) |
| O=C1/C(=C\c2ccc([N+](=O)[O-])cc2)Sc2scc(-c3ccc(O)c(O)c3)[n+]21 | 10.9 µM (inactive) |
| COc1ccc(CN2C[C@H]3[C@@H](CC(=O)O[C@H]3C)CC2=O)cc1 | > 100 µM (inactive) |

Please supply GI50 for each of the following items, keeping them in order.
1. O=C(Cc1ccccc1)NN1C(=O)C(Cl)C1c1ccc(Cl)cc1 (centres undefined)
2. C=C1CCC2CC1[C@@H](C(=O)c1c[nH]c3ccccc13)NC2(C)C (some centres undefined)
3. CC(C)(C)OC(=O)CN1CCN(CC(=O)N2CCN(C(=O)OCc3ccccc3)CC2)CCN(CC(=O)OC(C)(C)C)CCN(CC(=O)N2CCN(C(=O)OCc3ccccc3)CC2)CC1
4. O=c1[nH]c(=O)n2n1C1C=CC2CC1
5. N#Cc1c(O)nc2nn3c4ccc5ccccc5c4nnc3c2c1-c1ccc(Cl)cc1
6. Cc1ccc(C)c(COCCOCn2c(=O)[nH]c(=O)c3cc(Br)ccc32)c1
7. COc1ccc(NC(=S)N/N=C/c2cccc(C)n2)cc1

1: > 100 µM (inactive); 2: > 37.5 µM (inactive); 3: 1.42 µM (inactive); 4: > 100 µM (inactive); 5: 2.8 µM (inactive); 6: > 100 µM (inactive); 7: 3.98 µM (inactive)

Please supply GI50 for each of the following items, keeping them in order.
1. Oc1[nH]c(Nc2cccc(Cl)c2)nc2ncnc1-2
2. CCC1=CCC23C(=O)C=CC(=O)C2(C1)C(=O)c1cccc(OC)c1C3=O (centres undefined)
3. O/N=N/c1cnccn1
4. Cc1ccccc1/N=C/c1ccc(N(CCC#N)S(=O)(=O)c2ccccc2)cc1

["> 100 µM (inactive)", "20.9 µM (inactive)", "> 1250 µM (inactive)", "> 100 µM (inactive)"]

Please supply GI50 for each of the following items, keeping them in order.
1. CCCn1c(=O)c2ccccc2[n+]2c(-c3ccc([N+](=O)[O-])cc3)csc12
2. C=C1[C@@H]([C@@]2(C)C=CC(=O)C(C)(C)[C@@H]2CC(=O)OC)CC[C@@]2(C)[C@H](c3ccoc3)OC(=O)[C@H]3O[C@]132

1: 18.8 µM (inactive); 2: > 100 µM (inactive)

Any idea what its GI50 is? The molecule is COC(=O)/C=C\c1ccc2c(c1)CC1(C2)Cc2ccc(/C=C/C(=O)OC)cc2C1 (centres undefined)
> 31.6 µM (inactive)
